// provenance: paper PMC9037111

// reported inhibition at 5 µM per item
Target: SIRT1 (Homo sapiens, UniProt Q96EB6)
Test: biochemical
Set-up: Sirtuin-TK assay, percent inhibition of human SIRT1 or SIRT2 at 5 and 50 uM
quantity: inhibition at 5 µM (%)

# structure, result_number
rows = [
    ("CCN(CC)c1ccc(/C=N/NC(=O)/C=C/C=C/c2ccc3c(c2)OCO3)c(O)c1", 20),
    ("COc1cc(C=NNC(=O)/C=C/C=C/c2ccc3c(c2)OCO3)ccc1O", 12),
    ("CC(C)(C)c1cc(/C=N/NC(=O)/C=C/C=C/c2ccc3c(c2)OCO3)c(O)c(C(C)(C)C)c1", 9),
    ("O=C(/C=C/C=C/c1ccc2c(c1)OCO2)NN=Cc1ccc(O)cc1", 13),
    ("O=C(/C=C/C=C/c1ccc2c(c1)OCO2)N/N=C/c1ccc(O)cc1O", 18),
]

====

Target: UniProtKB Q96EB6
Experiment: biochemical
Parameters: Sirtuin-TK assay, percent inhibition of human SIRT1 or SIRT2 at 5 and 50 uM
Experimental: Sirtuin-TK assay was performed to estimate the Sirtuins inhibitory potential of 5a–h (Tables 2 and 3). The results of this test strongly complemented the findings of cancer cell-based assessments. […] Of the 8 compounds evaluated, 3 analogs (5b, 5e and 5h) were more likely to inhibit Sirt2 (>70% inhibition) than Sirt1 (<50% inhibition) at 50 μM. The other compounds were poor inhibitors of both enzymes. […] 4.2.2. Sirtuin inhibitory assay

# molecule, inhibition at 5 µM
data = [
    ("CN(C)c1ccc(C=NNC(=O)/C=C/C=C/c2ccc3c(c2)OCO3)cc1 (mixture of isomers)", "11%"),
    ("O=C(/C=C/C=C/c1ccc2c(c1)OCO2)NN=C(c1ccc(F)cc1)c1ccc(F)cc1", "14%"),
    ("C/C(=N\\NC(=O)/C=C/C=C/c1ccc2c(c1)OCO2)c1ccc(Br)cc1", "16%"),
]

====

// reported inhibition at 5 µM per item
Molecular target: SIRT2 (Homo sapiens, UniProt Q8IXJ6)
Sequence (Q8IXJ6 2-389): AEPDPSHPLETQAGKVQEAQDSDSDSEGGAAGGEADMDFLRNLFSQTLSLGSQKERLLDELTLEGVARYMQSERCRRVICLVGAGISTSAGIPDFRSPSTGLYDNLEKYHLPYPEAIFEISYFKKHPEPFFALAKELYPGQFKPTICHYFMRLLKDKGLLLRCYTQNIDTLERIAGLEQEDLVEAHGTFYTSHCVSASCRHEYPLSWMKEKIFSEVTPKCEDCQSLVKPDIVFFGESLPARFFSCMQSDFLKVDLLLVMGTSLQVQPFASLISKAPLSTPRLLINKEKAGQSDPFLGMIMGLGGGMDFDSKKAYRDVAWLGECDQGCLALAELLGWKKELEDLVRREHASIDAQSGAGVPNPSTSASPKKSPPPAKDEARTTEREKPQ
Test: biochemical
Design: Sirtuin-TK assay, percent inhibition of human SIRT1 or SIRT2 at 5 and 50 uM
Procedure: Sirtuin-TK assay was performed to estimate the Sirtuins inhibitory potential of 5a–h (Tables 2 and 3). The results of this test strongly complemented the findings of cancer cell-based assessments. […] Of the 8 compounds evaluated, 3 analogs (5b, 5e and 5h) were more likely to inhibit Sirt2 (>70% inhibition) than Sirt1 (<50% inhibition) at 50 μM. The other compounds were poor inhibitors of both enzymes. […] 4.2.2. Sirtuin inhibitory assay
quantity: inhibition at 5 µM

# structure, result
data = [
    ("O=C(/C=C/C=C/c1ccc2c(c1)OCO2)NN=C(c1ccc(F)cc1)c1ccc(F)cc1", "20%"),
    ("C/C(=N\\NC(=O)/C=C/C=C/c1ccc2c(c1)OCO2)c1ccc(Br)cc1", "22%"),
    ("CC(C)(C)c1cc(/C=N/NC(=O)/C=C/C=C/c2ccc3c(c2)OCO3)c(O)c(C(C)(C)C)c1", "19%"),
]

====

Target: SIRT2 (Homo sapiens)
Experiment: biochemical
Parameters: Sirtuin-TK assay, percent inhibition of human SIRT1 or SIRT2 at 5 and 50 uM
quantity: inhibition at 5 µM (%)

# molecule, system_under_test, quantity, result_number
rows = [
    ("O=C(/C=C/C=C/c1ccc2c(c1)OCO2)NN=Cc1ccc(O)cc1", "SIRT2 (Homo sapiens)", "inhibition at 5 µM", 19),
    ("O=C(/C=C/C=C/c1ccc2c(c1)OCO2)N/N=C/c1ccc(O)cc1O", "SIRT2 (Homo sapiens)", "inhibition at 5 µM", 26),
    ("CCN(CC)c1ccc(/C=N/NC(=O)/C=C/C=C/c2ccc3c(c2)OCO3)c(O)c1", "SIRT2 (Homo sapiens)", "inhibition at 5 µM", 24),
    ("CN(C)c1ccc(C=NNC(=O)/C=C/C=C/c2ccc3c(c2)OCO3)cc1 (mixture of isomers)", "SIRT2 (Homo sapiens)", "inhibition at 5 µM", 18),
    ("COc1cc(C=NNC(=O)/C=C/C=C/c2ccc3c(c2)OCO3)ccc1O", "SIRT2 (Homo sapiens)", "inhibition at 5 µM", 17),
]

====

Target: SIRT1 (Homo sapiens)
Sequence (Q96EB6 2-747): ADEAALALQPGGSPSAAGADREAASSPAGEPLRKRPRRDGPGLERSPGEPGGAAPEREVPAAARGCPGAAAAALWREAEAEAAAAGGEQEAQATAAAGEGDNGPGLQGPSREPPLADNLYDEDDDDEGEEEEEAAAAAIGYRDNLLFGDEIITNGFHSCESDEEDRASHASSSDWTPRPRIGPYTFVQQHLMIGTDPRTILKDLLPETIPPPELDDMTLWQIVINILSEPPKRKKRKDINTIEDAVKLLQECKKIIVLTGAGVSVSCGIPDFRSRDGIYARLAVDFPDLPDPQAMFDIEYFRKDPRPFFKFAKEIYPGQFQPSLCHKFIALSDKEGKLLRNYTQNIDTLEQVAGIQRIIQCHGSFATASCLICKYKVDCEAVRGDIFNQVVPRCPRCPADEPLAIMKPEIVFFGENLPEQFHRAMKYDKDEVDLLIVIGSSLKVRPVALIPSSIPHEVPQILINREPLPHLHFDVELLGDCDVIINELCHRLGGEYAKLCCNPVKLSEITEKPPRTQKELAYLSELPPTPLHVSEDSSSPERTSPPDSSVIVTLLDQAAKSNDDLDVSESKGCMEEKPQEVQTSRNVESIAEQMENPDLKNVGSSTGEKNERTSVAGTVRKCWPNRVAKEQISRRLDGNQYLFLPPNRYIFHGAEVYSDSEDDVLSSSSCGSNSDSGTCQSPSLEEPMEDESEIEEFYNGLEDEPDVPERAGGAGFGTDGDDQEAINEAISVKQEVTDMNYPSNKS
Experiment: biochemical
Design: Sirtuin-TK assay, percent inhibition of human SIRT1 or SIRT2 at 5 and 50 uM
quantity: inhibition at 50 µM (%)

# structure, quantity, quantity_unit, result_number
measured = [
    ("O=C(/C=C/C=C/c1ccc2c(c1)OCO2)NN=Cc1ccc(O)cc1", "inhibition at 50 µM", "%", 42),
    ("CC(C)(C)c1cc(/C=N/NC(=O)/C=C/C=C/c2ccc3c(c2)OCO3)c(O)c(C(C)(C)C)c1", "inhibition at 50 µM", "%", 35),
    ("CCN(CC)c1ccc(/C=N/NC(=O)/C=C/C=C/c2ccc3c(c2)OCO3)c(O)c1", "inhibition at 50 µM", "%", 44),
    ("O=C(/C=C/C=C/c1ccc2c(c1)OCO2)NN=C(c1ccc(F)cc1)c1ccc(F)cc1", "inhibition at 50 µM", "%", 39),
    ("C/C(=N\\NC(=O)/C=C/C=C/c1ccc2c(c1)OCO2)c1ccc(Br)cc1", "inhibition at 50 µM", "%", 44),
    ("COc1cc(C=NNC(=O)/C=C/C=C/c2ccc3c(c2)OCO3)ccc1O", "inhibition at 50 µM", "%", 38),
]

====

Target chain: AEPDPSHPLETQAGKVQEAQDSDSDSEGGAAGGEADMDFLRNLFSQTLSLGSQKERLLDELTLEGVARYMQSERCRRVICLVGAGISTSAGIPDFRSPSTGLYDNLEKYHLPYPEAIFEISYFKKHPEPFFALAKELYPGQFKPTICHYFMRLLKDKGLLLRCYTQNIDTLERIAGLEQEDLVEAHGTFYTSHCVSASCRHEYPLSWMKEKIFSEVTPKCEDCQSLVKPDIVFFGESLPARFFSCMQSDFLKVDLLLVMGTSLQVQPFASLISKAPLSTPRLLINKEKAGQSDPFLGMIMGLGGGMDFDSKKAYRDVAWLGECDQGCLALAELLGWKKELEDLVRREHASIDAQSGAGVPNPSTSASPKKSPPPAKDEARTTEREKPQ
pIC50: −log10 of the molar value.
// reported pIC50 per item

# structure, pIC50
data = [
    ("CCN(CC)c1ccc(/C=N/NC(=O)/C=C/C=C/c2ccc3c(c2)OCO3)c(O)c1", 4.64),
    ("C/C(=N\\NC(=O)/C=C/C=C/c1ccc2c(c1)OCO2)c1ccc(Br)cc1", 4.59),
    ("O=C(/C=C/C=C/c1ccc2c(c1)OCO2)N/N=C/c1ccc(O)cc1O", 4.68),
]
